B1: NELF-E aptamer (parent)
chain: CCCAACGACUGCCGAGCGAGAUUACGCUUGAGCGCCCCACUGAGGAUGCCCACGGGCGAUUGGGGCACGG

Variants of: B1
Experiment: HiTS-RAP
Details: with NELF-E (Drosophila)
pKd: −log10 of the molar value.
Think of 8 as a floor: if pKd stands on it or above, it is y; beneath it, n.

{"MUTATION_STRING": "A39G G54A", "ASSIGNED_LABEL": "n"}
{"MUTATION_STRING": "U22G G30A", "ASSIGNED_LABEL": "y"}
{"MUTATION_STRING": "U29G U41A", "ASSIGNED_LABEL": "n"}
{"MUTATION_STRING": "A4U G26U", "ASSIGNED_LABEL": "y"}

This collection of values is drawn from the RNAGym collection of RNA variant scans (doi:10.1038/nmeth.2970).
